Assay: Drug loading and encapsulation efficiency of drug loaded PNPs comprising pGlu(0.6C10) (HPLC)
Type: physicochemical
Settings: drug payload only, no polymer (N/A), 2.5 mg drug
test readout: Encapsulation efficiency (EE)

compound | test readout | experimental value
CCCCCCCCCCNC(=O)CNC1(C)CC(OC2C(Oc3c4cc5cc3Oc3ccc(cc3Cl)C(O)C3NC(=O)C(NC(=O)C5NC(=O)C(CC(N)=O)NC(=O)C(NC(=O)C(CC(C)C)NC)C(O)c5ccc(c(Cl)c5)O4)c4ccc(O)c(c4)-c4c(O)cc(O)cc4C(C(=O)O)NC3=O)OC(CO)C(O)C2O)OC(C)C1O (stereo not shown) | Encapsulation efficiency (EE) | 4.2%
CCCCCCCCCCNCCNC1(C)CC(OC2C(Oc3c4cc5cc3Oc3ccc(cc3Cl)C(O)C(NC(=O)C(CC(C)C)NC)C(=O)NC(CC(N)=O)C(=O)NC5C(=O)NC3C(=O)NC(C(=O)CC(C(=O)O)c5cc(O)cc(O)c5-c5cc3ccc5O)C(O)c3ccc(c(Cl)c3)O4)OC(CO)C(O)C2O)OC(C)C1O (stereo not shown) | Encapsulation efficiency (EE) | 0.0%
CN[C@H](CC(C)C)C(=O)N[C@H]1C(=O)N[C@@H](CC(N)=O)C(=O)N[C@H]2C(=O)N[C@H]3C(=O)N[C@H](C(=O)N[C@H](C(=O)O)c4cc(O)cc(O)c4-c4cc3ccc4O)[C@H](O)c3ccc(c(Cl)c3)Oc3cc2cc(c3O[C@@H]2O[C@H](CO)[C@@H](O)[C@H](O)[C@H]2O[C@H]2C[C@](C)(N)[C@H](O)[C@H](C)O2)Oc2ccc(cc2Cl)[C@H]1O | Encapsulation efficiency (EE) | 0.0%
CN[C@H](CC(C)C)C(=O)N[C@H]1C(=O)N[C@@H](CC(N)=O)C(=O)N[C@H]2C(=O)N[C@H]3C(=O)N[C@H](C(=O)N[C@H](C(=O)O)c4cc(O)cc(O)c4-c4cc3ccc4O)[C@H](O[C@H]3C[C@](C)(N)[C@@H](O)[C@H](C)O3)c3ccc(c(Cl)c3)Oc3cc2cc(c3O[C@@H]2O[C@H](CO)[C@@H](O)[C@H](O)[C@H]2O[C@H]2C[C@](C)(NCc3ccc(-c4ccc(Cl)cc4)cc3)[C@@H](O)[C@H](C)O2)Oc2ccc(cc2Cl)[C@H]1O | Encapsulation efficiency (EE) | 0.0%

----------
Test: Drug loading and encapsulation efficiency of drug loaded PNPs comprising pGlu(0.6C10)-PEG (HPLC)
Type: physicochemical
Details: study 2, PLA-PEG (A) 10 mg + pGlu(0.6C10)-PEG (C) 10 mg, 5 mg drug
test readout: Encapsulation efficiency (EE) (%)

molecule | experimental value
CCCCCCCCCCNC(=O)CNC1(C)CC(OC2C(Oc3c4cc5cc3Oc3ccc(cc3Cl)C(O)C3NC(=O)C(NC(=O)C5NC(=O)C(CC(N)=O)NC(=O)C(NC(=O)C(CC(C)C)NC)C(O)c5ccc(c(Cl)c5)O4)c4ccc(O)c(c4)-c4c(O)cc(O)cc4C(C(=O)O)NC3=O)OC(CO)C(O)C2O)OC(C)C1O (stereo not shown) | 92.7
CN[C@H](CC(C)C)C(=O)N[C@H]1C(=O)N[C@@H](CC(N)=O)C(=O)N[C@H]2C(=O)N[C@H]3C(=O)N[C@H](C(=O)N[C@H](C(=O)O)c4cc(O)cc(O)c4-c4cc3ccc4O)[C@H](O[C@H]3C[C@](C)(N)[C@@H](O)[C@H](C)O3)c3ccc(c(Cl)c3)Oc3cc2cc(c3O[C@@H]2O[C@H](CO)[C@@H](O)[C@H](O)[C@H]2O[C@H]2C[C@](C)(NCc3ccc(-c4ccc(Cl)cc4)cc3)[C@@H](O)[C@H](C)O2)Oc2ccc(cc2Cl)[C@H]1O | 68.1
CN[C@H](CC(C)C)C(=O)N[C@H]1C(=O)N[C@@H](CC(N)=O)C(=O)N[C@H]2C(=O)N[C@H]3C(=O)N[C@H](C(=O)N[C@H](C(=O)O)c4cc(O)cc(O)c4-c4cc3ccc4O)[C@H](O)c3ccc(c(Cl)c3)Oc3cc2cc(c3O[C@@H]2O[C@H](CO)[C@@H](O)[C@H](O)[C@H]2O[C@H]2C[C@](C)(N)[C@H](O)[C@H](C)O2)Oc2ccc(cc2Cl)[C@H]1O | 9.8
CCCCCCCCCCNCCNC1(C)CC(OC2C(Oc3c4cc5cc3Oc3ccc(cc3Cl)C(O)C(NC(=O)C(CC(C)C)NC)C(=O)NC(CC(N)=O)C(=O)NC5C(=O)NC3C(=O)NC(C(=O)CC(C(=O)O)c5cc(O)cc(O)c5-c5cc3ccc5O)C(O)c3ccc(c(Cl)c3)O4)OC(CO)C(O)C2O)OC(C)C1O (stereo not shown) | 45.5
